# credit: ChEMBL document CHEMBL5131406

# Test system: Pseudomonas aeruginosa
# protocol-details: Antibacterial activity against Pseudomonas aeruginosa
# Assay type: functional
Rule for this label: 1 means MIC is less than 60 µg/mL; 0 means MIC is at least 60 µg/mL.

Worked examples follow.
CC(C)CCc1cn(CC(=O)Nc2ccc(NC(=O)Cn3cc(CCC(C)C)nn3)cc2)nn1 : 0
O=C(Cn1cc(CCn2cc(CCc3ccccc3)nn2)nn1)Nc1ccc(NC(=O)Cn2cc(CCn3cc(CCc4ccccc4)nn3)nn2)cc1 : 0
O=C(Cn1cc(CC2CCCCC2)nn1)Nc1ccc(NC(=O)Cn2cc(CC3CCCCC3)nn2)cc1 : 0
CCOC(=O)c1cn(CC(=O)Nc2ccc(NC(=O)Cn3cc(C(=O)OCC)nn3)cc2)nn1 : 0

MIC under 60 µg/mL? Item: CC(C)CCc1cn(CCc2cn(CC(=O)Nc3ccc(NC(=O)Cn4cc(CCn5cc(CCC(C)C)nn5)nn4)cc3)nn2)nn1
1

// query: [N-]=[N+]=NCCc1cn(CC(=O)Nc2ccc(NC(=O)Cn3cc(CCN=[N+]=[N-])nn3)cc2)nn1
0

Also, O=C(Cn1cc(-c2ccccc2)nn1)Nc1ccc(NC(=O)Cn2cc(-c3ccccc3)nn2)cc1 please.
0

====

# Tested on: Bacillus cereus
# protocol-details: Antibacterial activity against Bacillus cereus
# Assay type: functional
Some molecules, each annotated with its measured MIC.
Write the numeric value and follow it with the unit.

Some solved entries appear below for comparison.
O=C(Cn1cc(CCn2cc(CC3CCCCC3)nn2)nn1)Nc1ccc(NC(=O)Cn2cc(CCn3cc(CC4CCCCC4)nn3)nn2)cc1 : 64 mg/L
O=C(Cn1cc(-c2ccccc2)nn1)Nc1ccc(NC(=O)Cn2cc(-c3ccccc3)nn2)cc1 : 64 mg/L
O=C(Cn1cc(CCn2cc(CCBr)nn2)nn1)Nc1ccc(NC(=O)Cn2cc(CCn3cc(CCBr)nn3)nn2)cc1 : 64 mg/L
O=C(Cn1cc(CCBr)nn1)Nc1ccc(NC(=O)Cn2cc(CCBr)nn2)cc1 : 64 mg/L
O=C(Cn1cc(CCn2cc(C3CC3)nn2)nn1)Nc1ccc(NC(=O)Cn2cc(CCn3cc(C4CC4)nn3)nn2)cc1 : 64 mg/L
CCOC(=O)c1cn(CCc2cn(CC(=O)Nc3ccc(NC(=O)Cn4cc(CCn5cc(C(=O)OCC)nn5)nn4)cc3)nn2)nn1 : 32 mg/L

MIC lookup needed for CC(C)CCc1cn(CC(=O)Nc2ccc(NC(=O)Cn3cc(CCC(C)C)nn3)cc2)nn1 , thanks.
64 mg/L

====

# Test system: Pseudomonas aeruginosa
# protocol-details: Antibacterial activity against Pseudomonas aeruginosa
# Assay type: functional
# Lookup of reported MIC keyed by entry
Supply the numeric figure in µg/mL, leaving out any unit text.

The following compounds have reported results that may help.
O=C(Cn1cc(CCc2ccccc2)nn1)Nc1ccc(NC(=O)Cn2cc(CCc3ccccc3)nn2)cc1 : 16
O=C(Cn1cc(CCn2cc(CCBr)nn2)nn1)Nc1ccc(NC(=O)Cn2cc(CCn3cc(CCBr)nn3)nn2)cc1 : 64
CCOC(=O)c1cn(CCc2cn(CC(=O)Nc3ccc(NC(=O)Cn4cc(CCn5cc(C(=O)OCC)nn5)nn4)cc3)nn2)nn1 : 64
O=C(Cn1cc(CCn2cc(-c3ccccc3)nn2)nn1)Nc1ccc(NC(=O)Cn2cc(CCn3cc(-c4ccccc4)nn3)nn2)cc1 : 64
O=C(Cn1cc(C2CCCC2)nn1)Nc1ccc(NC(=O)Cn2cc(C3CCCC3)nn2)cc1 : 64

Lab note: next compound to report on.
Suppose we examine the compound O=C(Cn1cc(CCn2cc(CC3CCCCC3)nn2)nn1)Nc1ccc(NC(=O)Cn2cc(CCn3cc(CC4CCCCC4)nn3)nn2)cc1 ; what MIC value has been reported?
64
